target: CYP3A4 (Homo sapiens (Human), UniProt P08684); experiment: CYP450 inhibition at 10 μM, CYP3A4; format: in vitro ADME; settings: human, 10 μM, read-out: CYP 450 % INH @ 10 μM
Sequence (P08684 whole entry): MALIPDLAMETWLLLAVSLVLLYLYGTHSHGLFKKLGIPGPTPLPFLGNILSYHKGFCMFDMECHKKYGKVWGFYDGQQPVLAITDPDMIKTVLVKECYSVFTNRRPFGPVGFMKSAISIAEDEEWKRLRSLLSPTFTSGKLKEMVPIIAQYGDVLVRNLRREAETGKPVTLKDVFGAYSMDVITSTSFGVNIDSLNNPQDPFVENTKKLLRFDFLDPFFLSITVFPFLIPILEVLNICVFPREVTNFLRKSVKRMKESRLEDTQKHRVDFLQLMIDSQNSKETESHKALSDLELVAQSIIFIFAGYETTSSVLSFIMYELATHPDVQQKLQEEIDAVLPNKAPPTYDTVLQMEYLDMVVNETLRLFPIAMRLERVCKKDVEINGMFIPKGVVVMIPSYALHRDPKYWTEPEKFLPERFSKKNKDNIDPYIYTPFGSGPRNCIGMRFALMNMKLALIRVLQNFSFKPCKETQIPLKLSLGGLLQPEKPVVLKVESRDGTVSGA
Label condition not met if inhibition at 10 µM falls below 50%; label condition met in every other case.

1. C[C@H](Nc1nc(C(=O)N2CCC(F)(F)C2)c2sccc2n1)c1ccccn1 = condition not met
2. Cc1cncc(CNc2nc(C(=O)N3CCCC3)c3sccc3n2)c1 = condition met
3. C[C@H]1CCN(C(=O)c2nc(N[C@@H](C)c3cccnc3)nc3ccsc23)C1 = condition met
4. CCNC(=O)c1nc(N[C@@H](C)c2ccccn2)nc2ccsc12 = condition not met
5. O=C(c1nc(NCc2cncc(F)c2)nc2ccsc12)N1CC[C@H](O)C1 = condition not met
6. CO[C@H]1CCN(C(=O)c2nc(N[C@@H](C)c3cccnc3)nc3ccsc23)C1 = condition met
7. C[C@H](Nc1nc(C(=O)N2CCC2)c2sccc2n1)c1ccccn1 = condition not met
8. C[C@@H]1CCN(C(=O)c2nc(N[C@@H](C)c3ccccn3)nc3ccsc23)C1 = condition not met
9. C[C@H](Nc1nc(C(=O)N2CC(F)(F)C2)c2sccc2n1)c1ccccn1 = condition not met
10. C[C@H](Nc1nc(C(=O)N2CC[C@H](F)C2)c2sccc2n1)c1cccnc1 = condition met
11. C[C@H](Nc1nc(C(=O)N2CCCC2)c2sccc2n1)c1ccccn1 = condition not met
12. COC1CN(C(=O)c2nc(N[C@@H](C)c3ccccn3)nc3ccsc23)C1 = condition not met
13. COc1ccc(CNC(=O)c2nc(N[C@@H](C)c3ccccn3)nc3ccsc23)cn1 = condition not met
14. C[C@H]1CCN(C(=O)c2nc(N[C@@H](C)c3ccccn3)nc3ccsc23)C1 = condition not met
15. O=C(c1nc(NCc2cncc(F)c2)nc2ccsc12)N1CC(F)(F)C1 = condition met
16. C[C@H](Nc1nc(C(=O)N2CC[C@@H](F)C2)c2sccc2n1)c1ccccn1 = condition not met
17. C[C@H](Nc1nc(C(=O)N2CC[C@@H](F)C2)c2sccc2n1)c1cccnc1 = condition met
18. C[C@H](Nc1nc(C(=O)N2CCCC2)c2sccc2n1)c1cccc(F)c1 = condition not met
19. O=C(c1nc(NCc2cncc(F)c2)nc2ccsc12)N1CC[C@@H](F)C1 = condition met
20. O=C(c1nc(NCc2cncc(F)c2)nc2ccsc12)N1CC[C@@H](O)C1 = condition not met
21. C[C@H](Nc1nc(C(=O)N2CCOC2)c2sccc2n1)c1ccccn1 = condition not met
22. Cc1cncc(CNc2nc(C(=O)N3CCC3)c3sccc3n2)c1 = condition met
23. C[C@H](Nc1nc(C(=O)N2CC[C@H](F)C2)c2sccc2n1)c1ccccn1 = condition not met
24. O=C(c1nc(NCc2cncc(F)c2)nc2ccsc12)N1CC(O)C1 = condition not met
25. C[C@@H]1CCN(C(=O)c2nc(N[C@@H](C)c3cccnc3)nc3ccsc23)C1 = condition met
26. C[C@H](Nc1nc(C(=O)N2CCCC2)c2sccc2n1)c1cncc(F)c1 = condition met
27. C[C@H](Nc1nc(C(=O)N2CC[C@@H](O)C2)c2sccc2n1)c1cccnc1 = condition not met
28. COC1CN(C(=O)c2nc(NCc3cncc(F)c3)nc3ccsc23)C1 = condition met
29. C[C@H](Nc1nc(C(=O)N2CC(O)C2)c2sccc2n1)c1ccccn1 = condition not met
30. Cc1ncccc1CNc1nc(C(=O)N2CCCC2)c2sccc2n1 = condition not met
31. O=C(NCCO)c1nc(NCc2cncc(F)c2)nc2ccsc12 = condition met
32. C[C@H](Nc1nc(C(=O)N2CC[C@H](O)C2)c2sccc2n1)c1cccnc1 = condition not met
